Test system: HCT116 cells, pERK
Assay: Inhibition of KRas phosphorylation of ERK (Cisbio HTRF Advanced pERK assay)
Format: cell-based
Settings: Homo sapiens, HCT-116, 3 hrs, read-out: Inhibition (HTRF IC50 nM) of KRas-mediated Phosphorylation of ERK, HCT116
endpoint: IC50 (nM)

Past entries and their recorded results:
O=S1(=O)NCC2(CCCN(c3nc(OC[C@@]45CCCN4C[C@H](F)C5)nc4c3CCN(c3cc(O)cc5ccc(F)c(Cl)c35)C4)C2)N1 (stereo partly shown)	126
CCc1c(F)ccc2cc(O)cc(N3CCc4c(nc(OC[C@@]56CCCN5C[C@H](F)C6)nc4N4CCOCC(CO)C4)C3)c12 (stereo partly shown)	1210
C[C@@]1(O)CCCN(c2nc(OC[C@@]34CCCN3C[C@H](F)C4)nc3c2CCN(c2cc(O)cc4ccc(F)c(Cl)c24)C3)C1	1170
O=C1NC(=O)C2(CCCN(c3nc(OC[C@@]45CCCN4C[C@H](F)C5)nc4c3CCN(c3cc(O)cc5ccc(F)c(Cl)c35)C4)C2)N1 (stereo partly shown)	164
C[C@@]1(O)CCCN(c2nc(OC[C@@]34CCCN3C[C@H](F)C4)nc3c2CCN(c2cc(O)cc4ccc(F)c(Br)c24)C3)C1	672

a. CCc1c(F)ccc2cc(O)cc(N3CCc4c(nc(OC[C@@]56CCCN5C[C@H](F)C6)nc4N4CCCC5(CNC5=O)C4)C3)c12 (stereo partly shown)
b. CC1(O)COCCN(c2nc(OC[C@@]34CCCN3C[C@H](F)C4)nc3c2CCN(c2cc(O)cc4ccc(F)c(Cl)c24)C3)C1 (stereo partly shown)
Exercise: Of a and b , which shows the smaller IC50 value? Please reply using the label of the selected record.
Solution: a

A. Nc1cc2n(n1)CCCN(c1nc(OC[C@@]34CCCN3C[C@H](F)C4)nc3c1CCN(c1cc(O)cc4ccc(F)c(Br)c14)C3)C2
B. CCc1c(F)ccc2cc(O)cc(N3CCc4c(nc(OC[C@@]56CCCN5C[C@H](F)C6)nc4N4CCCC5(CNC(=O)N5)C4)C3)c12 (stereo partly shown)
Exercise: When A and B are compared, which has the higher number for IC50? Please reply using the label of the selected record.
Solution: A
(A: 1110 nM, B: 125 nM)

A. O=C1NC(=O)C2CN(c3nc(OC[C@@]45CCCN4C[C@H](F)C5)nc4c3CCN(c3cc(O)cc5ccc(F)c(Cl)c35)C4)CC12 (stereo partly shown)
B. CCc1c(F)ccc2cc(O)cc(N3CCc4c(nc(OC[C@@]56CCCN5C[C@H](F)C6)nc4N4CCCn5nc(C(=O)N(C)C)cc5C4)C3)c12
Exercise: When A and B are compared, which has the higher number for IC50? Please reply using the label of the selected record.
Solution: A
(A: 709 nM, B: 62 nM)

* * *

Target: KRas^G12S (Homo sapiens, UniProt P01116, G12S)
Construct: […]; biotin (biotinylated)
Sequence (P01116 1-169 isoform P01116-2 G12S): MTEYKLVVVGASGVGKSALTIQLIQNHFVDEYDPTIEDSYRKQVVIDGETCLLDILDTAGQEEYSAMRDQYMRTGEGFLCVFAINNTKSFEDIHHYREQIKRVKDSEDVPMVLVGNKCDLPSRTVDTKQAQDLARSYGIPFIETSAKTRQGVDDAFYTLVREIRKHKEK
Experiment: KRas binding assay (TR-FRET displacement of Cy5 labelled tracer)
endpoint: IC50 (nM)

CCc1cccc2cccc(N3CCc4c(nc(OCC56CCCN5CCC6)nc4N4CCOC(CC(N)=O)C4)C3)c12 (stereo not shown)	791
CCc1cccc2cccc(N3CCc4c(nc(OCC56CCCN5CCC6)nc4N4CCCC(c5cn(C)nn5)C4)C3)c12 (stereo not shown)	917

A. CCc1cccc2cccc(N3CCc4c(nc(OCC56CCCN5CCC6)nc4N4CCOCC(O)C4)C3)c12 (stereo not shown)
B. CCc1cccc2cccc(N3CCc4c(nc(OCC56CCCN5CCC6)nc4N4CCOCC(n5cccn5)C4)C3)c12 (stereo not shown)
C. CCc1cccc2cccc(N3CCc4c(nc(OCC56CCCN5CCC6)nc4NCCS(=O)(=O)N=S(C)(C)=O)C3)c12
D. CCc1cccc2cccc(N3CCc4c(nc(OCC56CCCN5CCC6)nc4N4CCCC(c5ncn[nH]5)C4)C3)c12 (stereo not shown)
E. CCc1cccc2cccc(N3CCc4c(nc(OCC56CCCN5CCC6)nc4N4CCC(O)CC(C)C4)C3)c12 (stereo not shown)
Exercise: // smallest IC50 at index 0, largest at the end Could you list the labels in the order requested?
Solution: A, B, E, D, C
